- Tested on: KGN
- Test summary: Induction of estrogen biosynthesis in human KGN cells assessed as upregulation of E2 concentration preincubated for 24 hrs followed by testosterone addition for 24 hrs by magnetic particle based ELISA
- Format: functional, cell-based
Below is a list of entries, each paired with its recorded EC50 value.
Output spec: scalar in µM, unitless text.

- Given smiles: "CC(=O)CC[C@@]1(C)[C@H](C)CC[C@@]2(C)C(CO)=CCC[C@H]12"
  EC50 / µM: 8

Pending molecule:
Lab request: please report EC50 under test system KGN for `COc1cc(/C=C/C(=O)OC[C@H]2O[C@@H](O[C@@H]3OC=C[C@@]4(O)[C@H](O)C[C@](C)(OC(C)=O)[C@@H]34)[C@H](O)[C@@H](O)[C@@H]2O)cc(OC)c1O`
11.1
